# Tested on: AZT-R HIV
# assay_info: microbe, parasite or virus in culture
# Format: cell-based, HIV-1
# experimental_setup: Human immunodeficiency virus 1, HOS, read-out: AZT IC50
observation_type: IC50 (nM)
Please reply with the bare figure in nM and do not write the unit itself.

Provide one value: measured IC50 of Cc1cn([C@H]2C[C@H](N=[N+]=[N-])[C@@H](CO)O2)c(=O)[nH]c1=O [AZT, zidovudine, reference compound]
41

====

# System: HOS cells
# assay_info: XTT cell viability assay
# Type: cell-based, human
# experimental_setup: read-out: CC50 XTT
Let's look at some compounds and their measured CC50.
Please reply with the bare figure in µM and do not write the unit itself.

Reference set, count: 4
| compound | system_tested | observation_type | measured_number |
| --- | --- | --- | --- |
| O=C(CSc1ncccc1C(=O)O)c1ccc(O)c(O)c1 | HOS cells | CC50 | 370 |
| O=C(O)CC1CC(=O)Oc2c1ccc(O)c2O (centres unmarked) | HOS cells | CC50 | 120 |
| Cc1c[nH]c2c1C(c1ccc(O)c(O)c1)C(C#N)=C(N)O2 (centres unmarked) | HOS cells | CC50 | 52 |
| O=C1S/C(=C\c2ccc(O)c(O)c2)C(=O)N1c1ccc(O)cc1 | HOS cells | CC50 | 24 |

Provide one value: measured CC50 of O=C1NC(=Nc2ccccc2O)S/C1=C/c1ccc(O)c(O)c1
16

====

# system_tested: wt HIV-1 RT RNase H (Human immunodeficiency virus type 1 group M subtype B)
# assay_info: In vitro RT-RNase H activity
# experimental_setup: read-out: IC50 RT-RNase H, recombinant HIV-1 RT
observation_type: IC50
Answer format: number, then unit.

Reference set, count: 4
| compound | IC50 |
| --- | --- |
| O=C(CSc1ncccc1C(=O)O)c1ccc(O)c(O)c1 | 2.9 µM |
| O=C1NC(=Nc2ccccc2O)S/C1=C/c1ccc(O)c(O)c1 | 5 µM |
| O=C1S/C(=C\c2ccc(O)c(O)c2)C(=O)N1c1ccc(O)cc1 | 5 µM |
| Cc1c[nH]c2c1C(c1ccc(O)c(O)c1)C(C#N)=C(N)O2 (centres unmarked) | 5.8 µM |

Now examine the next entry.
Provide one value: measured IC50 of O=C(O)CC1CC(=O)Oc2c1ccc(O)c2O (centres unmarked)
3.3 µM

====

Let's look at some compounds and their measured IC50.
# system_tested: HIV-1 RT DNA polymerase (Human immunodeficiency virus type 1 group M subtype B, UniProt P04585)
# assay_info: In vitro RT RNA-dependent DNA polymerase activity
# Type: biochemical
# experimental_setup: read-out: IC50 RT-DNA polymerase, recombinant HIV-1 RT
Please reply with the bare figure in µM and do not write the unit itself.

| compound | unit_of_measurement | IC50 |
| --- | --- | --- |
| O=C1NC(=Nc2ccccc2O)S/C1=C/c1ccc(O)c(O)c1 [F0888-0058] | µM | 29.6 |

Now examine the next entry.
Provide one value: measured IC50 of O=C1S/C(=C\c2ccc(O)c(O)c2)C(=O)N1c1ccc(O)cc1 [F0444-0019]
18.5

====

Let's look at some molecules and their measured pIC50.
# system_tested: HIV-1 RT DNA polymerase (Human immunodeficiency virus type 1 group M subtype B, UniProt P04585)
# assay_info: In vitro RT RNA-dependent DNA polymerase activity
# experimental_setup: read-out: IC50 RT-DNA polymerase, recombinant HIV-1 RT
pIC50: −log10 of the molar value.

| molecule | pIC50 |
| --- | --- |
| O=C(O)CC1CC(=O)Oc2c1ccc(O)c2O (stereo not drawn) | < 4.00 |
| Cc1c[nH]c2c1C(c1ccc(O)c(O)c1)C(C#N)=C(N)O2 (stereo not drawn) | < 4.00 |

Now examine the next entry.
Provide one value: measured pIC50 of O=C(CSc1ncccc1C(=O)O)c1ccc(O)c(O)c1
< 4.00
